All figures here come from patent US20220194999A1.

target: T1, HLA-A*02:01 class I complex (conditional p*HLA*02:01, biotinylated heavy chain with beta2-microglobulin) (human, biotinylated heavy chain); assay: UV peptide exchange, HLA class I ELISA, % of Pos peptide
T1 construct: UV-labile peptide p* is cleaved and exchanged for the test peptide; also called HLA 2.1
MEASUREMENT_LABEL: Mutant Binding (%)
Answer format: numeric, % implied, no suffix.

Reference set (2 entries):
>>> df
                                     binder  measure_unit  recorded_measurement
0  VVPCEPPEV (also called M230) [TP53.Y220C mutant peptide VVPCEPPEV]             %                  33.5
1  ILNREIDFA (also called M090) [PIK3CA.G118D mutant peptide ILNREIDFA]             %                  50.4

q: # lookup: Mutant Binding of QLWVDSTPL (also called M180) [TP53.P152L mutant peptide QLWVDSTPL]
a: 86.2

q: Repeat for the following binder: ALNNMFCQL (also called M160) [TP53.K132N mutant peptide ALNNMFCQL]
a: 41.3
